Molecular target: hSR Y121A (Homo sapiens, UniProt Q9GZT4, C2D/C6D/Y121A)
Construct: (His)6 (C); made in house; host or cells: E. coli BL21-CodonPlus (DE3)-RIL
Sequence (Q9GZT4 whole entry C2D/C6D/Y121A): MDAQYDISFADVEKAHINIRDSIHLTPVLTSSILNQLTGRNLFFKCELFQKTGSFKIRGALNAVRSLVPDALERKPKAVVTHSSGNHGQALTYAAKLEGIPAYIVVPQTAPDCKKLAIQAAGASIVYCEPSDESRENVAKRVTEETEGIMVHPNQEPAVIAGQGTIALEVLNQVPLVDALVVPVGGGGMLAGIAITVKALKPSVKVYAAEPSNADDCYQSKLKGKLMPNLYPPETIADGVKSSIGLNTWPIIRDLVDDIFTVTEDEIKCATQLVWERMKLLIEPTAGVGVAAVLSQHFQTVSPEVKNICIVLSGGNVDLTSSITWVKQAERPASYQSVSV
Assay: L- to D-Ser racemisation coupled luminescence assay, Y121A mutant
Assay type: biochemical
Conditions: 1 mM ATP, 2 mM L-serine, 16.7% DMSO, ~ = extrapolated
Procedure: The ability of compounds to inhibit the L to D-Ser racemisation activity of hSR was measured in a coupled assay. […] The activity of the wild-type and the three Y121 mutants, Y121F, Y121A and Y121G was measured at six ATP concentrations (1 mM, 0.5 mM, 0.25 mM, 0.125 mM, 0.062 mM and 0.031 mM) as shown in supplementary Fig. 11. The inhibition of hSR activity was measured using a luminescence assay in a 384 well plate (flat bottom white, Corning). […]
Endpoint: IC50

Known results for molecules:
Nc1ccccc1N1CCOCC1 | 0.0094 mM
OCc1ccc(-n2cnc3ccccc32)cc1 | ~7.85 mM
NCc1cc(-c2ccccc2)no1 | ~37.6 mM
CC(=O)NCCc1ccccc1C | ~23.6 mM

Dear reader, for each entry below, please note its IC50.
1. CS(=O)(=O)Cc1nc2ccccc2[nH]1
2. O=C(CCCc1ccccc1)N1CCOCC1
3. CC(=O)NC1CNc2ccccc2C1 (centres unmarked)
4. O=C(NCc1nc2ccccc2[nH]1)c1ccco1

// result
["~16.1 mM", "~22.3 mM", "0.0033 mM", "~8.4 mM"]

---

Molecular target: hSR Tyr 121 pocket (Homo sapiens, UniProt Q9GZT4, C2D/C6D)
Construct: (His)6 (C); made in house; host or cells: E. coli (BL21-CodonPlus (DE3)-RIL for the mutants; the wild type is only 'as described[33]')
Sequence (Q9GZT4 whole entry C2D/C6D): as the sequence (Q9GZT4 whole entry C2D/C6D/Y121A) above, with A121Y counted along it
Experiment: XChem crystallographic fragment screen
Type: binding
Parameters: key: A = best; D = worst
Details: crystals soaked with 150 mM fragment
Endpoint: Initial rank from examination of XChem electron density/fit

# count of solved cases: 4
CC(CS(N)(=O)=O)c1ccccc1 (stereo not shown) | D
NCc1cc(-c2ccccc2)no1 | D
NC(=O)c1cnc(C(F)(F)F)nc1 | D
Cn1nccc1C(=O)NCc1cccs1 | D

Report Initial rank from examination of XChem electron density/fit for each item below.
1. CCCc1nnc(NC(=O)c2ccccn2)s1
2. CC(=O)NCCc1ccccc1C
3. CNCC1COc2ccccc2O1 (stereo not shown)

// result
["D", "A", "A"]

---

Target: human serine racemase (hSR) WT (Homo sapiens, UniProt Q9GZT4, C2D/C6D)
Construct: (His)6 (C); made in house; host or cells: E. coli (BL21-CodonPlus (DE3)-RIL for the mutants; the wild type is only 'as described[33]')
Sequence (Q9GZT4 whole entry C2D/C6D): as the sequence (Q9GZT4 whole entry C2D/C6D/Y121A) above, with A121Y counted along it
Assay: L- to D-Ser racemisation coupled luminescence assay, wild-type hSR
Assay type: biochemical
Details: wild-type hSR; 1 mM ATP, 2 mM L-serine, 16.7% DMSO; ~ = extrapolated with artificial 100% point at 1 M
Would you kindly list IC50 for each of these compounds?

The following compounds have reported results that may help.
CC(=O)NCCc1ccccc1C [1-x0495] | ~19.5 mM
O=C(CCCc1ccccc1)N1CCOCC1 [7-x0109] | ~12.5 mM
CC(=O)NC1CNc2ccccc2C1 (centres unmarked) [4-x0482] | 0.0051 mM

Quick batch: IC50 for everything below.
1. O=C(NCc1nc2ccccc2[nH]1)c1ccco1 [2-x0406]
2. CS(=O)(=O)Cc1nc2ccccc2[nH]1 [15-x0306]
3. OCc1ccc(-n2cnc3ccccc32)cc1 [14-x0478]
4. NCc1cc(-c2ccccc2)no1 [12-x0437]
5. Nc1ccccc1N1CCOCC1 [3-x0458]

// result
["~3.7 mM", "~12.8 mM", "~6.9 mM", "~25.3 mM", "0.0106 mM"]
